The origin of these recorded values is the NIST ThermoML archive (doi:10.1016/j.fluid.2009.09.019).

Consider the following compounds; for each one, report its refractive index.
assay: refractive index (Na D-line) (dimensionless); details: 293.2 K; 101.33 kPa; Liquid; Standard Abbe refractometry
Answers are plain numbers.

Solved entries:
{"Compound Structure String": "CCCCCC", "Result Value": 1.375}
{"Compound Structure String": "Cc1ccccc1", "Result Value": 1.4967}
{"Compound Structure String": "C1CCCCC1", "Result Value": 1.4263}
{"Compound Structure String": "CCCCCCC", "Result Value": 1.3873}

Prompt: Need refractive index of "O=C1CCCO1" , thanks.
Completion: 1.4344

====

details: 293.2 K; 101.33 kPa; Liquid; Vibrating tube method
Measure: mass density (kg/m3)
Give bare numbers, in kg/m3.

{"Compound Structure String": "CCCCCC", "mass density (kg/m3)": 660.1}

Hi! Can you tell me mass density for each of these molecules?
1. CCCCCCC
2. C1CCCCC1

Completion:
[684.1, 778.12]

Prompt: Need mass density of "O=C1CCCO1" , thanks.
Completion: 1128.7
